- Test system: PC-3 prostate
- test name: NCI-60 one-dose screen, 48 h
- run parameters: 10 µM unless noted
- Experimental: Growth inhibition of the PC-3 human tumor cell line is measured as a screen for anti-cancer activity. Cells are grown in 96 well plates and exposed to the test compound for 48 hours. Compounds are tested at a single concentration, which is 10^-5 M for most compounds. The reported endpoint is percent growth (GI% or GIPRCNT), where numbers from 0 - 100% represent growth inhibition, and numbers from -100% - 0 represent cell death. For example, a value of 40 represents 60% growth inhibition. […]
The panel holds about 83,000 compounds, 20% with a hit somewhere; the sample as a whole holds those more often. The source made the active and inactive calls. The calls were made as follows: active = growth percent below 10; inactive = the rest.
Please answer using one outcome listed in Y for active, N for inactive

Query :: # outcome recorded in this test, key = CC(C)(C)NCC(O)COc1c(Br)c(Br)c(Br)c2c1OC(C)(C)C2 (configuration not stated)
Result :: Y

Query :: # outcome recorded in this test, key = Nc1ncnc2c1c(C(F)(F)F)cn2[C@@H]1O[C@H](CO)[C@@H](O)[C@H]1O
Result :: N

Query :: # outcome recorded in this test, key = FC(F)(F)c1cn(CCN2CCOCC2)c2ncnc(Cl)c12
Result :: N

Query :: # outcome recorded in this test, key = Cc1cc2nc(-c3c(N)ncc(C#N)c3-c3ccc(Cl)cc3)[nH]c2cc1C
Result :: N

Query :: # outcome recorded in this test, key = CC(C)[C@@H]1NC(=O)[C@]2(C)CSC(=N2)c2ccnc(c2)CNC(=O)C[C@@H](/C=C/CCS)OC1=O
Result :: N

Query :: # outcome recorded in this test, key = Cc1cccc(Cc2cnc(NC(=O)CCc3ccc(C)o3)s2)c1
Result :: N

Query :: # outcome recorded in this test, key = Cc1ccc2oc(=O)cc(C3C(C#N)=C(N)Oc4c3ccc3ccccc43)c2c1 (configuration not stated)
Result :: N

Query :: # outcome recorded in this test, key = Cc1cc(C)c(O)c(C(=O)CC(Br)C(=O)O)c1 (configuration not stated)
Result :: N

Query :: # outcome recorded in this test, key = CNC(=O)NN
Result :: N

Query :: # outcome recorded in this test, key = O=C(N/N=C/c1ccccc1O)c1ccccc1O
Result :: N

Query :: # outcome recorded in this test, key = COc1cc2c(cc1OCCCCC(=O)Nc1ccc(-c3nc4ccccc4s3)cc1)N=C[C@@H]1CCCN1C2=O
Result :: Y

Query :: # outcome recorded in this test, key = COc1cc(-c2nc(N)n(CC(=O)Nc3ccc(/C(C)=N\O)cc3)n2)cc(OC)c1OC
Result :: N

---

- System: OVCAR-3 ovarian
- test name: NCI-60 one-dose screen, 48 h (100 = growth as untreated, 0 = no growth, -100 = all killed)
- run parameters: 10 µM unless noted
About 83,000 compounds went through this panel and 20% of them were active in at least one assay; those are over-represented in the sample as a whole.
endpoint: growth (%)
Output spec: scalar in %, unitless text.

The compound Clc1ccc2c(c1)nnn1c3ncccc3c(Br)c21 , when measured on OVCAR-3 ovarian, yielded growth of 70.8

The compound C=CC(=O)Nc1cccc(Nc2nc(Nc3ccc(OCCOC(F)F)cc3)ncc2F)c1 , when measured on OVCAR-3 ovarian, yielded growth of 48.4

The compound O=C1OC(=O)C2C3CC(c4ccccc43)C12 (stereo not drawn) , when measured on OVCAR-3 ovarian, yielded growth of 125

The compound Nc1c(C(=O)O)[nH]c(=O)[nH]c1=O , when measured on OVCAR-3 ovarian, yielded growth of 105

The compound CC(/C=C/C=C(\C)[C@H](O)[C@H](C)C(=O)O[C@H]1C[C@H](C)C=C2C=C[C@@]3(C)O[C@@H](O)CC(=O)[C@]3(C)[C@H]21)=C\C=C\C(=O)O , when measured on OVCAR-3 ovarian, yielded growth of 2.71

The compound O=C(Nc1ccc(-n2cc(-c3ccncc3)c(-c3ccc(O)c(Cl)c3)n2)cc1)c1cc(Cl)cc(Cl)c1 , when measured on OVCAR-3 ovarian, yielded growth of 27

The compound CSc1nc(N)nc2c1ncn2C , when measured on OVCAR-3 ovarian, yielded growth of 100

The compound CCOC(=O)n1cnc2c(Cl)ncnc21 , when measured on OVCAR-3 ovarian, yielded growth of 112

The compound CCNc1ncnc2n[nH]nc12 , when measured on OVCAR-3 ovarian, yielded growth of 106

The compound CNC(=O)NN , when measured on OVCAR-3 ovarian, yielded growth of 91.8

The compound Cc1c(C(C)(C)C)cc(C(C)(C)C)c2c1CN(C)CO2 , when measured on OVCAR-3 ovarian, yielded growth of 102

The compound COc1ccc(C(=O)NC(=O)Nc2ccc3c(c2)NC(=O)/C3=C\c2[nH]c(C)c(C(=O)O)c2C)c(F)c1 , when measured on OVCAR-3 ovarian, yielded growth of 5.25

The compound C#CCn1c(-c2cc(OC)c(OC)cc2Br)nc(-c2ccccc2)c1-c1ccccc1 , when measured on OVCAR-3 ovarian, yielded growth of 9.74

The compound COc1cc(/C=C/C(=O)c2ccc(Oc3ncnc4ccccc34)cc2)cc(OC)c1OC , when measured on OVCAR-3 ovarian, yielded growth of 35.6

The compound COc1cc(NC(=O)c2cc(OC)c3ccn(C)c3c2)cc2c1C[C@]1(C)CC[C@@H](O)C(C)(C)[C@H]1O2 , when measured on OVCAR-3 ovarian, yielded growth of 80.7

The compound C[C@]12CC[C@@H]3c4ccc(O)c(N)c4CC[C@H]3[C@@H]1CC[C@@H]2O , when measured on OVCAR-3 ovarian, yielded growth of 100

The compound CCOC(=O)c1[nH]c(-c2ccc(Cl)cc2)cc1-c1cccnc1 , when measured on OVCAR-3 ovarian, yielded growth of -7.92

The compound COC(OC)C1(c2ccccc2)NC(=O)NC1=O (stereo not drawn) , when measured on OVCAR-3 ovarian, yielded growth of 126

The compound C[C@]12O[C@H]1[C@H](O)c1c(cc(O)c3c1C(=O)c1cccc(O)c1-3)C2=O , when measured on OVCAR-3 ovarian, yielded growth of 106

The compound c1ccc(-c2nc3sc(C(c4ccccc4)c4ccccc4)nn3c2-c2ccccc2)cc1 , when measured on OVCAR-3 ovarian, yielded growth of 100

The compound c1ccc2nc(Cn3cc[n+](Cc4ccc5ccccc5n4)c3)ccc2c1 , when measured on OVCAR-3 ovarian, yielded growth of 52

The compound O=C(Cn1c2ccccc2c2ccncc21)N/N=C/c1cc(O)c(O)c(O)c1 , when measured on OVCAR-3 ovarian, yielded growth of 106

The compound COc1cc(-c2nc(N)n(CC(=O)Nc3ccc(/C(C)=N\O)cc3)n2)cc(OC)c1OC , when measured on OVCAR-3 ovarian, yielded growth of 106

The compound CS(=O)(=O)Nc1cccc(-c2ccc3ncnc(Nc4ccc(F)c(Cl)c4)c3c2)c1 , when measured on OVCAR-3 ovarian, yielded growth of 25.9

The compound CCCN1C(=O)CSC1=Nc1ccc2cc3ccc(N=C4SCC(=O)N4CCC)cc3nc2c1 , when measured on OVCAR-3 ovarian, yielded growth of 51

The compound O=C(O)c1ccc(-n2cc(/C=N/Nc3ccc(F)cc3)c(-c3cccc(C(F)(F)F)c3)n2)cc1 , when measured on OVCAR-3 ovarian, yielded growth of 70.8

The compound CC(C)(C)OC(=O)N1CC(Cn2cc(C(F)(F)F)c3c(Cl)ncnc32)C1 , when measured on OVCAR-3 ovarian, yielded growth of -49.9

The compound O=C(/C=C/c1ccco1)c1cccc(Nc2nc(Nc3ccccc3)nc(Nc3ccccc3)n2)c1 , when measured on OVCAR-3 ovarian, yielded growth of 61.8

The compound Cc1cc(N2CCOCC2)nc(N(CCNc2ccnc3cc(Cl)ccc23)Cc2ccco2)n1 , when measured on OVCAR-3 ovarian, yielded growth of -64.3

The compound O=S(=O)(CCN1CCOCC1)Nc1cncc(-c2ccc3ncnc(Nc4ccc(F)c(Cl)c4)c3c2)c1 , when measured on OVCAR-3 ovarian, yielded growth of 50.6

The compound O=[N+]([O-])c1ccccc1NC1c2ccccc2Oc2ccccc21 , when measured on OVCAR-3 ovarian, yielded growth of 3.28

The compound Clc1ccc(OCc2nc(-c3ccccc3)n[nH]2)c(Cl)c1 , when measured on OVCAR-3 ovarian, yielded growth of 108

The compound C=C1C(=O)O[C@H]2[C@H]1CC/C(C(=O)NCCOCCOCC(=O)Nc1ccc(OC)c(C(N)=O)c1O)=C\CC[C@@]1(C)O[C@@H]21 , when measured on OVCAR-3 ovarian, yielded growth of 84.3
